Overview of recorded Approximate pKa for various compounds
test: pKa of hindered amines by non-aqueous titration; assay type: physicochemical; settings: extrapolated from calibration plot

Solved entries:
>>> test_value("CC1(C)CN(CCN(c2nc(N(CCN3CC(C)(C)NC(C)(C)C3=O)C3CCCCC3)nc(N(CCN3CC(C)(C)NC(C)(C)C3=O)C3CCCCC3)n2)C2CCCCC2)C(=O)C(C)(C)N1 [GOODRITE ® 3150]")
"~6.7"
>>> test_value("CCCCCCCCON1C(C)(C)CC(OC(=O)CCCCCCCCC(=O)OC2CC(C)(C)N(OCCCCCCCC)C(C)(C)C2)CC1(C)C [TINUVIN ® 123]")
"~4.4"
>>> test_value("CC1(C)CC(OC(=O)CCCCCCCCC(=O)OC2CC(C)(C)NC(C)(C)C2)CC(C)(C)N1 [TINUVIN ® 770]")
"~9.0"

Now for the compound whose Approximate pKa we want.
Bench note: what Approximate pKa did CN1C(C)(C)CN(CCN(c2nc(N(CCN3CC(C)(C)N(C)C(C)(C)C3=O)C3CCCCC3)nc(N(CCN3CC(C)(C)N(C)C(C)(C)C3=O)C3CCCCC3)n2)C2CCCCC2)C(=O)C1(C)C [GOODRITE ® 3159] show? ~6.1
